Known fold affinity vs original of a selection of binders
- Experimental target: binding partner of C5A (XPA23)
- Experiment notes: Biacore
The reply should be a number in fold, with the unit left off.

INSERT INTO assay_data (binder, unit_tag, assay_result) VALUES
  ('C5A (XPA23) VH G56E (antibody, V domains shown) VH: EVQLLESGGGLVQPGGSLRLSCAASGFTFSKYFMFWVRQAPGKGLEWVSVISPSGEMTRYADSVKGRFTISRDNSKNTLYLQMNSLRAEDTAVYYCARVGYGGNSDYWGQGTLVTVSS VL: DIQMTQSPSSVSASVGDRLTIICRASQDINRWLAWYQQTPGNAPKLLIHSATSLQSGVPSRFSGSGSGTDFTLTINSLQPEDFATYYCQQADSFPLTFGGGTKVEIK', 'fold', 1.21),
  ('C5A (XPA23) VH I51N (antibody, V domains shown) VH: EVQLLESGGGLVQPGGSLRLSCAASGFTFSKYFMFWVRQAPGKGLEWVSVNSPSGGMTRYADSVKGRFTISRDNSKNTLYLQMNSLRAEDTAVYYCARVGYGGNSDYWGQGTLVTVSS VL: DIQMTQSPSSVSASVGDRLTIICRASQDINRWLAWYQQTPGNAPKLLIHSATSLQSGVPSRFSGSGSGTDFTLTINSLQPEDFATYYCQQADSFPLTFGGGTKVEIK', 'fold', 0.68);

Please look at the following binder next.
fold affinity vs original reading for C5A (XPA23) VH Y32H (antibody, V domains shown) VH: EVQLLESGGGLVQPGGSLRLSCAASGFTFSKHFMFWVRQAPGKGLEWVSVISPSGGMTRYADSVKGRFTISRDNSKNTLYLQMNSLRAEDTAVYYCARVGYGGNSDYWGQGTLVTVSS VL: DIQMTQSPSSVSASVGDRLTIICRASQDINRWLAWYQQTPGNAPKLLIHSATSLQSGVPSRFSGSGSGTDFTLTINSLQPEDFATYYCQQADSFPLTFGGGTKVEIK : 0.62
